# subject of test: KRas G12S (Homo sapiens, UniProt P01116, G12S)
# Construct: Biotinylated KRas (corresponding to amino acids 1-169, produced at Accelegan Inc.); biotin (biotinylated); purchased Accelegan Inc
# Sequence (P01116 1-169 isoform P01116-2 G12S): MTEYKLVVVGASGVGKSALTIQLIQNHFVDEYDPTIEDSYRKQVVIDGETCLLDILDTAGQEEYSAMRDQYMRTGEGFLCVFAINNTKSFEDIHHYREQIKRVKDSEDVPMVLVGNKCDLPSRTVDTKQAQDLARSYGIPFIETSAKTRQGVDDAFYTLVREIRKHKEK
# assay name: KRas binding assay, TR-FRET displacement of Cy5 labelled tracer
# test parameters: 60-minute incubation at room temperature, 1% DMSO, pH 7.5
Define the label as rule met when IC50 is strictly less than 20 nM and as rule not met in all remaining cases.

[[record]]
compound = "CCc1c(F)ccc2cc(O)cc(-c3ncc4c(N5CC6CC(C(=O)N(C)C(C)=O)C6C5)nc(OC[C@@]56CCCN5C[C@H](F)C6)nc4c3F)c12 (some centres unmarked) [Example 277]"
classification = "rule not met"

[[record]]
compound = "Cc1ccn(C(=O)C23CC(CNc4nc(OC[C@@]56CCCN5C[C@H](F)C6)nc5c(F)c(-c6ccc(F)c7sc(N)c(C#N)c67)c(Cl)cc45)(C2)C3)n1 [Example 184]"
classification = "rule met"

[[record]]
compound = "N#Cc1c(N)sc2c(F)ccc(-c3c(Cl)cc4c(N5CCC(C(=O)N6C7CCC6COC7)CC5)nc(OC[C@@]56CCCN5C[C@H](F)C6)nc4c3F)c12 [Example 247]"
classification = "rule not met"

[[record]]
compound = "CCc1c(F)ccc2cc(O)cc(-c3ncc4c(N5CCC(C(=O)N6CCCCC6=O)CC5)nc(OC[C@@]56CCCN5C[C@H](F)C6)nc4c3F)c12 [Example 154]"
classification = "rule not met"

[[record]]
compound = "COCc1ccn(C(=O)C2CCCN(c3nc(OC[C@@]45CCCN4C[C@H](F)C5)nc4c(F)c(-c5ccc(F)c6sc(N)c(C#N)c56)c(Cl)cc34)CC2)n1 (some centres unmarked) [Example 190]"
classification = "rule met"

